Biological target: CYP3A4 (Homo sapiens)
Experiment: P450-Glo CYP3A4 luciferin isopropylacetal (Luc-IP) assay
pIC50: −log10 of the molar value.
PARAMETER_MEASURED: pIC50

Please review the following examples before continuing.
COCC(C)C(=O)Nc1ccc(-c2c[nH]c3cc(F)ccc23)cc1 (stereo not drawn): < 5.00
O=C(NCCN1C[C@@H](O)[C@H](O)C1)c1ccc(-c2c[nH]c3cc(F)ccc23)cc1Cl: < 5.00
O=C(N[C@H]1CCCNC1)c1ccc(-c2c[nH]c3cc(F)ccc23)cc1Cl: 5.00 to 5.30
CN(C)CCCNC(=O)c1c(F)cc(-c2c[nH]c3cc(F)ccc23)cc1F: < 5.00

Below are some compounds; for each one, tell me its pIC50.
1. Nc1ccn(C(=O)c2ccc(-c3c[nH]c4cc(F)ccc34)cc2)n1
2. CN(C)CCCNC(=O)c1ccc(-c2c[nH]c3ccc(F)cc23)cc1
3. CCCC(C)NC(=O)c1ccc(-c2c[nH]c3cc(F)ccc23)cc1 (stereo not drawn)
4. O=C(NCC(F)(F)F)c1ccc(-c2c[nH]c3cc(F)ccc23)cc1Cl
5. C[C@H](CO)NC(=O)c1ccc(-c2c[nH]c3cc(F)ccc23)cc1F

*A*
1: < 5.00; 2: < 5.00; 3: < 5.00; 4: < 5.00; 5: < 5.00

State the recorded pIC50 for every item in the following list.
1. O=C(NC1COC1)c1ccc(-c2c[nH]c3cc(F)ccc23)cc1
2. Cc1cc(C(=O)N[C@@H](C)CO)ccc1-c1c[nH]c2cc(F)ccc12

*A*
1. < 5.00
2. 5.00 to 5.30

Please supply pIC50 for each of the following items, keeping them in order.
1. CC(C)NC(=O)c1ccc(-c2c[nH]c3cc(F)ccc23)cc1
2. COC(=O)C(NC(=O)c1ccc(-c2c[nH]c3cc(F)ccc23)cc1)C1CCNCC1 (stereo not drawn)
3. O=C(NCC1CC(F)(F)C1)c1ccc(-c2c[nH]c3cc(F)ccc23)cc1
4. C[C@@H](CO)NC(=O)c1ccc(-c2c[nH]c3cc(F)ccc23)cc1Cl
5. CCNC(=O)Nc1ccc(-c2c[nH]c3cc(F)ccc23)cc1
6. O=C(N[C@H]1CN2CCC1CC2)c1ccc(-c2c[nH]c3cc(F)ccc23)cc1
7. Cn1cc(CCC(=O)Nc2ccc(-c3c[nH]c4cc(F)ccc34)cc2)cn1

*A*
["< 5.00", "5.00 to 5.30", "< 5.00", "< 5.00", "< 5.00", "< 5.00", "< 5.00"]

* * *

Biological target: CYP3A4 (Homo sapiens, UniProt P08684)
Sequence (P08684 whole entry): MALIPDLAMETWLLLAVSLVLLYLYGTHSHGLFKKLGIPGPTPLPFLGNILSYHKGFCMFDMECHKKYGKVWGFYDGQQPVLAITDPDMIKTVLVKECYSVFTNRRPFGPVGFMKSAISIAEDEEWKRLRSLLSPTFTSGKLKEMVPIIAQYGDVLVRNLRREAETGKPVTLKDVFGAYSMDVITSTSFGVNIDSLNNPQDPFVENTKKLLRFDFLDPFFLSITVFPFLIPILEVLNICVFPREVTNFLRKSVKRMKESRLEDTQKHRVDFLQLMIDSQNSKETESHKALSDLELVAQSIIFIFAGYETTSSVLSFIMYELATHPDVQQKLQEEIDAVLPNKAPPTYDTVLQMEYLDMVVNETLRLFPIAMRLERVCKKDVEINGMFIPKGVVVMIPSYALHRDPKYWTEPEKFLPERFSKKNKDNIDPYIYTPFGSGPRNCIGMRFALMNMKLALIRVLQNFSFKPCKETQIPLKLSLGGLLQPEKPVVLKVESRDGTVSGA
Test: P450-Glo CYP3A4 luciferin isopropylacetal (Luc-IP) assay
pIC50: −log10 of the molar value.
PARAMETER_MEASURED: pIC50

O=C(NC1CCCNC1)c1ccc(-c2c[nH]c3cc(F)ccc23)cc1 (stereo not drawn) [Example 118]: < 5.00
O=C(NC1[C@H]2COC[C@@H]12)c1ccc(-c2c[nH]c3cc(F)ccc23)cc1 (stereo partly drawn) [Example 64]: < 5.00
CCOC(=O)N1CCCC(NC(=O)c2ccc(-c3c[nH]c4cc(F)ccc34)cc2)C1 (stereo not drawn) [Example 121]: < 5.00
O=C(N[C@@H]1CCCC[C@H]1O)c1ccc(-c2c[nH]c3cc(F)ccc23)cc1 [Example 50]: < 5.00
COc1cc(-c2c[nH]c3cc(F)ccc23)ccc1C(=O)N[C@H]1CCCNC1 [Example 75]: 5.00 to 5.30

Look up pIC50 for the entries below, preserving their order.
1. CCN(CC)CC(C)NC(=O)c1ccc(-c2c[nH]c3cc(F)ccc23)cc1 (stereo not drawn) [Example 23]
2. Cc1cc(C(=O)NCCCN(C)C)ccc1-c1c[nH]c2cc(F)ccc12 [Example 127]
3. Cc1cc(CC(=O)Nc2ccc(-c3c[nH]c4cc(F)ccc34)cc2)no1 [Example 99]
4. O=C(NCC1(O)CCC1)c1ccc(-c2c[nH]c3cc(F)ccc23)cc1 [Example 62]
5. O=C(NC[C@H]1CCNC1)c1ccc(-c2c[nH]c3cc(F)ccc23)cc1 [Example 91]
6. O=C(NCC1(O)CCCCC1)c1ccc(-c2c[nH]c3cc(F)ccc23)cc1 [Example 89]

*A*
5.00 to 5.30
< 5.00
< 5.00
5.00 to 5.30
5.00 to 5.30
< 5.00

Would you be so kind as to report pIC50 for each listed record?
1. O=C(NOC[C@H](O)CO)c1ccc(-c2c[nH]c3cc(F)ccc23)cc1 [Example 67]
2. C[C@@H](CO)NC(=O)c1ccc(-c2c[nH]c3ccc(F)cc23)cc1 [Example 40]
3. N#CCC(=O)Nc1ccc(-c2c[nH]c3cc(F)ccc23)cc1 [Example 32]
4. O=C(NCCN1CCCCC1)c1ccc(-c2c[nH]c3cc(F)ccc23)cc1 [Example 46]

*A*
1. 5.00 to 5.30
2. < 5.00
3. < 5.00
4. 5.00 to 5.30

Quick one: give me pIC50 for each item below, same order please.
1. C[C@@H](CO)NC(=O)c1c(F)cc(-c2c[nH]c3cc(F)ccc23)cc1F [Example 60]
2. CC(CN(C)C)NC(=O)c1ccc(-c2c[nH]c3cc(F)ccc23)cc1 (stereo not drawn) [Example 1]

*A*
< 5.00
< 5.00

*Q* Please look up its pIC50: O=C(NCCC(F)(F)F)c1ccc(-c2c[nH]c3cc(F)ccc23)cc1 [Example 134]
*A* < 5.00

* * *

Target: CYP3A4 (Homo sapiens, UniProt P08684)
Experiment: P450-Glo CYP3A4 luciferin isopropylacetal (Luc-IP) assay
PARAMETER_MEASURED: IC50

Worked cases, answers included:
N#CC1(NC(=O)c2ccc(-c3c[nH]c4cc(F)ccc34)cc2)CC1 [Example 12]: > 10 µM
O=C(NOC[C@@H](O)CO)c1ccc(-c2c[nH]c3cc(F)ccc23)cc1 [Example 66]: 5 to 10 µM
NCCNC(=O)c1ccc(-c2c[nH]c3cc(F)ccc23)cc1 [Example 90]: > 10 µM

For each entry beneath this line, provide reported IC50.
1. CN1CCN(CCCNC(=O)c2ccc(-c3c[nH]c4cc(F)ccc34)cc2)CC1 [Example 135]
2. O=C(CC1CNCCO1)Nc1ccc(-c2c[nH]c3cc(F)ccc23)cc1 (centres unmarked) [Example 102]
3. O=C(NCCN1C[C@H](O)[C@@H](O)C1)c1ccc(-c2c[nH]c3cc(F)ccc23)cc1Cl [Example 115]
4. O=C(NCCN1CCCC1)c1ccc(-c2c[nH]c3cc(F)ccc23)cc1 [Example 77]
5. C[C@H](NC(=O)c1ccc(-c2c[nH]c3cc(F)ccc23)cc1)C(C)(C)C [Example 88]

*A*
["5 to 10 µM", "5 to 10 µM", "> 10 µM", "> 10 µM", "> 10 µM"]

* * *

I'd appreciate it if you could supply IC50 values for the items below.
Molecular target: CYP2D6 (Homo sapiens, UniProt P10635)
Sequence (P10635 whole entry): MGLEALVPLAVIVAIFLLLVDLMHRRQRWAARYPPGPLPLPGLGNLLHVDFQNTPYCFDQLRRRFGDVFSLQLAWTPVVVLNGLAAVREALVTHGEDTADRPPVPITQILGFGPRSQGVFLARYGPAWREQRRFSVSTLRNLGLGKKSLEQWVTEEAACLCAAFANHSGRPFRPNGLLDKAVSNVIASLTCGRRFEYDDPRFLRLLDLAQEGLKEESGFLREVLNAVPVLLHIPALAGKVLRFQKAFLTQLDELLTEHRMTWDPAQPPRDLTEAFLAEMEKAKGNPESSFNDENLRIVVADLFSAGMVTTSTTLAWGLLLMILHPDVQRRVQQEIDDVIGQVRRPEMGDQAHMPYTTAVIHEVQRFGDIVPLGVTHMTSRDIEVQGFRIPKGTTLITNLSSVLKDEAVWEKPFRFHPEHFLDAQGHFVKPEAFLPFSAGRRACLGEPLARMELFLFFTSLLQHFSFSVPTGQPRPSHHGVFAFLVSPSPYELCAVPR
Experiment: P450-Glo CYP2D6 Luc-IP assay

O=C(NCC1(O)CCC1)c1ccc(-c2c[nH]c3cc(F)ccc23)cc1 [Example 62]: > 10 µM
O=C(N[C@@H]1CCCC[C@H]1O)c1ccc(-c2c[nH]c3cc(F)ccc23)cc1 [Example 50]: > 10 µM
Cc1cc(C(=O)N[C@H](C)CO)ccc1-c1c[nH]c2cc(F)ccc12 [Example 128]: 5 to 10 µM

As a next step, examine the compound that follows.
*Q* IC50 of CN1CC(C(=O)Nc2ccc(-c3c[nH]c4cc(F)ccc34)cc2)CCC1=O (stereo not shown) [Example 108] on CYP2D6 (Homo sapiens, UniProt P10635)?
*A* > 10 µM

* * *

Target: CYP3A4 (Homo sapiens, UniProt P08684)
Assay: P450-Glo CYP3A4 luciferin isopropylacetal (Luc-IP) assay
pIC50: −log10 of the molar value.
PARAMETER_MEASURED: pIC50

Some entries whose results are on file:
CCNCC(=O)Nc1ccc(-c2c[nH]c3cc(F)ccc23)cc1: < 5.00
CN(C)CCCNC(=O)c1ccc(-c2c[nH]c3cc(F)ccc23)cc1Cl: < 5.00
C[C@H](CO)NC(=O)c1ccc(-c2c[nH]c3cc(F)ccc23)cc1Cl: < 5.00
O=C(CC1COC1)Nc1ccc(-c2c[nH]c3cc(F)ccc23)cc1: < 5.00
C[C@H](NC(=O)c1ccc(-c2c[nH]c3cc(F)ccc23)cc1)c1nnc2ccccn12: 5.00 to 5.30
CC(CO)(CO)NC(=O)c1ccc(-c2c[nH]c3cc(F)ccc23)cc1: < 5.00
N[C@H]1CC[C@@H](C(=O)Nc2ccc(-c3c[nH]c4cc(F)ccc34)cc2)C1: 5.00 to 5.30
NS(=O)(=O)N1CCCC(NC(=O)c2ccc(-c3c[nH]c4cc(F)ccc34)cc2)C1 (stereo not drawn): < 5.00

Then this molecule:
*Q* Name the recorded pIC50 for CN1C2CCC1CC(NC(=O)c1ccc(-c3c[nH]c4cc(F)ccc34)cc1)C2 (stereo not drawn) .
*A* < 5.00
